measured-target: UniProt P04629
Sequence (P04629 whole entry): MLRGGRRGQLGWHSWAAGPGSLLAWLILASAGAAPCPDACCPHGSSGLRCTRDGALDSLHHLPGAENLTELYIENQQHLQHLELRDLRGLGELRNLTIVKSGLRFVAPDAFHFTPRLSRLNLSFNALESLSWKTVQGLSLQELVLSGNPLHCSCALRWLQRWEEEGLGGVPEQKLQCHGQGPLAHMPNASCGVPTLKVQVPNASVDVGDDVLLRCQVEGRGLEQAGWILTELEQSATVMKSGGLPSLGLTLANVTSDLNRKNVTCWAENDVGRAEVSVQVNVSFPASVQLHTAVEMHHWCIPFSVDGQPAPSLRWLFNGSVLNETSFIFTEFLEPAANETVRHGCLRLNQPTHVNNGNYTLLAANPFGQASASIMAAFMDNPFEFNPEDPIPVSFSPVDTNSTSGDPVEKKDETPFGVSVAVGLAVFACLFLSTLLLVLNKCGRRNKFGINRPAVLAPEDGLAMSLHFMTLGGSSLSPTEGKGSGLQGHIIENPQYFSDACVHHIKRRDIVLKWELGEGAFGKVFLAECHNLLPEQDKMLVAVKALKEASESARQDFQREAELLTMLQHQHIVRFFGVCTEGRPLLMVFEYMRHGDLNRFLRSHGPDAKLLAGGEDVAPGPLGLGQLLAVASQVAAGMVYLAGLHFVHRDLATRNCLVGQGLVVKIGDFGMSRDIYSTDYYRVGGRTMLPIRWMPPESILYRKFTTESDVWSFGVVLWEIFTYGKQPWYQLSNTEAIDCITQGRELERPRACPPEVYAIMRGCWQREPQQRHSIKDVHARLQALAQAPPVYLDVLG
assay-details: Inhibition of human TrkA (440 to end residues) using KKKSPGEYVNIEFG as substrate measured after 40 mins in presence of [gamma33P]ATP by scintillation counting method
Kindly state pIC50 for each of the entries shown.
One number for each entry, as −log10 of the molar value.

Look over these answered cases.
NS(=O)(=O)c1ccc(CNc2nc(Nc3cccc(CN4CCOCC4)c3)ncc2Br)cc1
6.80
NS(=O)(=O)c1ccc(CNc2nc(Nc3cccc(NC(=O)N4CCCC4)c3)ncc2Br)cc1
6.55
NS(=O)(=O)c1ccc(CNc2nc(Nc3cccc(CN4CCOCC4)c3)ncc2C2CC2)cc1
6.82

# ---- query molecule ----
Measured pIC50 for this entry `NS(=O)(=O)c1ccc(CNc2nc(Nc3cccc(NC(=O)N4CCCC4)c3)ncc2C2CC2)cc1` on UniProt P04629: 6.32

---

assay-details: Effective permeability in PBS at 7.4 incubated for 5 hrs by PAMPA analysis
Format: ADME
particulars: pH 7.4, 5 h
Kindly state Peff for each of the entries shown.

Cc1nn(CC(F)(F)F)cc1Nc1nccc(NCCCNC(=O)C2CCC2)n1
2.39 10^-6 cm/s

# per-item lookup of Peff; items listed below
1. c1cc(CN2CCOCC2)cc(Nc2nccc(NCCc3cnc[nH]3)n2)c1
2. c1cc(CN2CCOCC2)cc(Nc2ncc(C3CC3)c(NCCc3c[nH]cn3)n2)c1
3. NS(=O)(=O)c1ccc(CNc2nc(Nc3cccc(NC(=O)N4CCCC4)c3)ncc2C2CC2)cc1

[A]
1: 1.66 10^-7 cm/s; 2: 5.61 10^-7 cm/s; 3: 2.6 10^-6 cm/s

# per-item lookup of Peff; items listed below
1. O=C(NCCCNc1nc(Nc2cccc(NC(=O)N3CCCC3)c2)ncc1C1CC1)C1CCC1
2. Cc1nn(CC(F)(F)F)cc1Nc1nccc(NCCc2cnc[nH]2)n1
3. Cc1nn(CC(F)(F)F)cc1Nc1ncc(Br)c(NCCCNC(=O)C2CCC2)n1
4. O=C(Nc1cccc(Nc2ncc(Br)c(NCCc3c[nH]cn3)n2)c1)N1CCCC1
5. Cc1nn(CC(F)(F)F)cc1Nc1ncc(C2CC2)c(NCCc2c[nH]cn2)n1
6. O=C(NCCCNc1nc(Nc2cccc(CN3CCOCC3)c2)ncc1C1CC1)C1CCC1
7. NS(=O)(=O)c1ccc(CNc2ccnc(Nc3cccc(CN4CCOCC4)c3)n2)cc1
8. O=C(NCCCNc1ccnc(Nc2cccc(NC(=O)N3CCCC3)c2)n1)C1CCC1

[A]
5.97 10^-7 cm/s
6.23 10^-8cm/s
3.73 10^-6 cm/s
1.39 10^-7 cm/s
3.89 10^-7 cm/s
2.6 10^-6 cm/s
4.56 10^-7 cm/s
8.24 10^-8cm/s

---

Kindly state % control for each of the entries shown.
measured-target: Serine/threonine-protein kinase 17B (Homo sapiens) (UniProt O94768)
Sequence (O94768 whole entry): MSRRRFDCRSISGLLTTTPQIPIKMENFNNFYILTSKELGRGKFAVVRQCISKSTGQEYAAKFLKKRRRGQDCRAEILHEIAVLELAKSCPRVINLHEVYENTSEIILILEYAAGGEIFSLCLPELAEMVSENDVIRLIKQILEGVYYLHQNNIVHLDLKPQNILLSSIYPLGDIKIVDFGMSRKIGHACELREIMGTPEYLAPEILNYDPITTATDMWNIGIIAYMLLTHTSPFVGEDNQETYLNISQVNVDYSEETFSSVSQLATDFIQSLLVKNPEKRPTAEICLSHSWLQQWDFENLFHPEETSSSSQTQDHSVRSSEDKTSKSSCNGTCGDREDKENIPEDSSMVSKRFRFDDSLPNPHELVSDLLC
assay-details: Inhibition of full length recombinant human DRAK2 using KKRPQRRYSNVF as substrate at 1 uM incubated for 120 mins in presence of [gamma-33P-ATP] by radiometric scintillation assay relative to control
Numbers only, in %.

Cc1nn(CC(F)(F)F)cc1Nc1nccc(NCCCNC(=O)C2CCC2)n1
60

# per-item lookup of % control; items listed below
1. c1cc(CN2CCOCC2)cc(Nc2nccc(NCCc3cnc[nH]3)n2)c1
2. Cc1nn(CC(F)(F)F)cc1Nc1nccc(NCCc2cnc[nH]2)n1
3. Cc1nn(CC(F)(F)F)cc1Nc1ncc(C2CC2)c(NCCc2c[nH]cn2)n1

[A]
1: 65; 2: 91; 3: 59

---

measured-target: Non-receptor tyrosine-protein kinase TYK2 (Homo sapiens)
assay-details: Inhibition of NanoLuc-fused TYK2 (unknown origin) expressed in HEK293 cells incubated for 2 hrs by NanoBRET assay
Format: cell-based
pIC50: −log10 of the molar value.
metric-name: pIC50

NS(=O)(=O)c1ccc(CNc2ccnc(Nc3cccc(CN4CCOCC4)c3)n2)cc1
< 5.00

Measured pIC50 for this entry `NS(=O)(=O)c1ccc(CNc2ccnc(Nc3cccc(NC(=O)N4CCCC4)c3)n2)cc1` on Non-receptor tyrosine-protein kinase TYK2 (Homo sapiens): < 5.00

---

Kindly state pIC50 for each of the entries shown.
measured-target: Leucine-rich repeat serine/threonine-protein kinase 2 (Homo sapiens, UniProt Q5S007)
Sequence (Q5S007 whole entry, the tested form may be a part): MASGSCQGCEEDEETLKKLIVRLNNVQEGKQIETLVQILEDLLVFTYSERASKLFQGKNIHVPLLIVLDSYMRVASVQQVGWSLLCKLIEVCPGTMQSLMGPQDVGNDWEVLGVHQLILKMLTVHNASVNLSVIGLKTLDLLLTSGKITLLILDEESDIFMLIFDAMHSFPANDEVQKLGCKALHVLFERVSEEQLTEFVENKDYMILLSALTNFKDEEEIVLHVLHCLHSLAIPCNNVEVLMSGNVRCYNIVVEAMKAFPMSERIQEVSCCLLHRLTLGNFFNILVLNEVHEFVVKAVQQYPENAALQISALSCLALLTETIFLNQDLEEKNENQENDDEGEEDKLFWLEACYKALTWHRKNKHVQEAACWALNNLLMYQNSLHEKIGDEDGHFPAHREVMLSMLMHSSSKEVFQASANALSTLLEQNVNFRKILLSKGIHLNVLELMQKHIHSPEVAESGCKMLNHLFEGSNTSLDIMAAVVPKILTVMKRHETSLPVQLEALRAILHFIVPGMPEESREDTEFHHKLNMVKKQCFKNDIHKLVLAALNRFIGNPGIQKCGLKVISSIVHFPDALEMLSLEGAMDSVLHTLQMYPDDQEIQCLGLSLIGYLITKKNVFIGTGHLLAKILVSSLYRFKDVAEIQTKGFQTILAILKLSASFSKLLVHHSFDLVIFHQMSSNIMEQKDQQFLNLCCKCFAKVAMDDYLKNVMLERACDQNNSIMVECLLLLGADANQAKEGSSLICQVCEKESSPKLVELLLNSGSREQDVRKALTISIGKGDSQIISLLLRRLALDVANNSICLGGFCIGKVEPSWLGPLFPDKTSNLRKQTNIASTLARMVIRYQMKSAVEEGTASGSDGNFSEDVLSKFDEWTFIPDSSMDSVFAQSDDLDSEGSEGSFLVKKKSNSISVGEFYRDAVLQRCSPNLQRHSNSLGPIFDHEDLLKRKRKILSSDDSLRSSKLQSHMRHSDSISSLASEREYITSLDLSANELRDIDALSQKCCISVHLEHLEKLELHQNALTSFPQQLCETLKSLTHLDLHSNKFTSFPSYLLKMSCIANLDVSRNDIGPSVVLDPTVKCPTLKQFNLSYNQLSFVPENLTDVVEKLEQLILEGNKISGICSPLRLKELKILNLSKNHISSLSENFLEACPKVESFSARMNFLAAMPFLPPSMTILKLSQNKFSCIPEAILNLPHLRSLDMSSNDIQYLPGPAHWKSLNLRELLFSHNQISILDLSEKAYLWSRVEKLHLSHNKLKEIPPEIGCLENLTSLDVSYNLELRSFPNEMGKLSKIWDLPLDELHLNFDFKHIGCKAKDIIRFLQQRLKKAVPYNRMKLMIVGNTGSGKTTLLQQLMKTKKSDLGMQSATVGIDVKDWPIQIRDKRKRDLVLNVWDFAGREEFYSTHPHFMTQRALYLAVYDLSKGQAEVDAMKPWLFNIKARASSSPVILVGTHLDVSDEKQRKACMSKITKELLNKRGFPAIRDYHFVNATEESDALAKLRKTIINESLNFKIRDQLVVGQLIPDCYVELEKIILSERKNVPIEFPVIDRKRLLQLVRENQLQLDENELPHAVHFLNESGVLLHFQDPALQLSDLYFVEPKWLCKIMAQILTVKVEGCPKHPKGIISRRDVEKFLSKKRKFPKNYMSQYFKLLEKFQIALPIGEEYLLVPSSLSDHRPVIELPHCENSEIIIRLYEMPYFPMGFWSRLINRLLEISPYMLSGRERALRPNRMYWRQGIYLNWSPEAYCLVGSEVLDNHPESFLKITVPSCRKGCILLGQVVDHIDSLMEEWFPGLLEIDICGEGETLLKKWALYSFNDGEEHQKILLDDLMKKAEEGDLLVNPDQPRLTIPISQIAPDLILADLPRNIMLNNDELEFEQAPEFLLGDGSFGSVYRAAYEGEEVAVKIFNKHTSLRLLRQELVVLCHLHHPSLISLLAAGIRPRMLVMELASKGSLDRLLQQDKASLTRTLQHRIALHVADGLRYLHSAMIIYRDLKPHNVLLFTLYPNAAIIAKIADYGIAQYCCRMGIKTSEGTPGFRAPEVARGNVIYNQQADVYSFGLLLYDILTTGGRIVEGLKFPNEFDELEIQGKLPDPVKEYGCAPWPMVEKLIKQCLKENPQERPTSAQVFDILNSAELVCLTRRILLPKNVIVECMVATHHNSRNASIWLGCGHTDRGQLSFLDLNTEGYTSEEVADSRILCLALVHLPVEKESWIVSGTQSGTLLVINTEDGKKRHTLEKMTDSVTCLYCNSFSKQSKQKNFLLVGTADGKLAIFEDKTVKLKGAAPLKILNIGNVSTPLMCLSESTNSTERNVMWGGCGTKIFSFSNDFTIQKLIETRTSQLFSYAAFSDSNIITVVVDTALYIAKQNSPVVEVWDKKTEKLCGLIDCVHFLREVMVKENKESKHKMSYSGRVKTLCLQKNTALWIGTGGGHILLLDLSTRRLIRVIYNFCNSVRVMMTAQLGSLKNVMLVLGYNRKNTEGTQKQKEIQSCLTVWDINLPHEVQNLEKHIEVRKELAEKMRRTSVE
assay-details: Inhibition of recombinant human LRRK2 (970 to end residues) using RLGRDKYKTLRQIRQ as substrate incubated for 40 mins in presence of [gamma-33P-ATP] by radiometric scintillation assay
Numbers only, as −log10 of the molar value.

Cc1nn(CC(F)(F)F)cc1Nc1ncc(C2CC2)c(NCCCNC(=O)C2CCC2)n1
7.72

Measured pIC50, `Cc1nn(CC(F)(F)F)cc1Nc1ncc(C2CC2)c(NCCc2c[nH]cn2)n1` : 7.05

---

measured-target: Serine/threonine-protein kinase TBK1 (Homo sapiens, UniProt Q9UHD2)
assay-details: Displacement of tracer K5 from NLuc fused TBK1 (unknown origin) expressed in HEK293 cells by NanoBRET assay
metric-name: log10(IC50) (log10 of the value in µM)
// units: µM (pre-log); metric: IC50; scale: log10

O=C(NCCCNc1nc(Nc2cccc(NC(=O)N3CCCC3)c2)ncc1Br)C1CCC1
-0.47
O=C(Nc1cccc(Nc2ncc(Br)c(NCCc3c[nH]cn3)n2)c1)N1CCCC1
0.37

# per-item lookup of log10(IC50); items listed below
1. Cc1nn(CC(F)(F)F)cc1Nc1ncc(Br)c(NCc2ccc(S(N)(=O)=O)cc2)n1
2. Cc1nn(CC(F)(F)F)cc1Nc1ncc(Br)c(NCCCNC(=O)C2CCC2)n1
3. NS(=O)(=O)c1ccc(CNc2nc(Nc3cccc(CN4CCOCC4)c3)ncc2C2CC2)cc1
4. O=C(NCCCNc1nc(Nc2cccc(NC(=O)N3CCCC3)c2)ncc1C1CC1)C1CCC1
5. NS(=O)(=O)c1ccc(CNc2nc(Nc3cccc(NC(=O)N4CCCC4)c3)ncc2Br)cc1

[A]
1: -0.47; 2: -0.49; 3: 0.31; 4: 0.41; 5: 0.79

# per-item lookup of log10(IC50); items listed below
1. Cc1nn(CC(F)(F)F)cc1Nc1ncc(C2CC2)c(NCc2ccc(S(N)(=O)=O)cc2)n1
2. Cc1nn(CC(F)(F)F)cc1Nc1ncc(C2CC2)c(NCCCNC(=O)C2CCC2)n1

[A]
0.87
0.43

---

measured-target: NUAK family SNF1-like kinase 1 (Homo sapiens)
assay-details: Inhibition of recombinant human ARK5 (2 to end residues) using KKKVSRSGLYRSPSMPENLNRPR as substrate incubated for 40 mins in presence of [gamma-33ATP] by scintillation counting based radiometry assay
metric-name: IC50 (nM)
Give bare numbers, in nM.

Look over these answered cases.
c1cc(CN2CCOCC2)cc(Nc2nccc(NCCc3cnc[nH]3)n2)c1
176
NS(=O)(=O)c1ccc(CNc2nc(Nc3cccc(CN4CCOCC4)c3)ncc2Br)cc1
171

Measured IC50, `NS(=O)(=O)c1ccc(CNc2nc(Nc3cccc(NC(=O)N4CCCC4)c3)ncc2Br)cc1` : 317

---

measured-target: Leucine-rich repeat serine/threonine-protein kinase 2 (Homo sapiens)
assay-details: Inhibition of NanoLuc-fused LRRK2 (unknown origin) expressed in HEK293 cells incubated for 2 hrs by NanoBRET assay
Format: cell-based
metric-name: IC50

Measured IC50, `Cc1nn(CC(F)(F)F)cc1Nc1ncc(C2CC2)c(NCCc2c[nH]cn2)n1` : > 10 µM

---

measured-target: Aurora kinase B (Homo sapiens)
assay-details: Inhibition of full length recombinant human AURKB using AKRRRLSSLRA as substrate at 1 uM incubated for 40 mins in presence of [gamma-33P-ATP] by radiometric scintillation assay relative to control
Checkbox rule: % control lower than 7% = y; % control not lower than 7% = n.

Take a look at these entries with their results.
NS(=O)(=O)c1ccc(CNc2nc(Nc3cccc(CN4CCOCC4)c3)ncc2C2CC2)cc1
n
c1cc(CN2CCOCC2)cc(Nc2nccc(NCCc3cnc[nH]3)n2)c1
y
NS(=O)(=O)c1ccc(CNc2nc(Nc3cccc(NC(=O)N4CCCC4)c3)ncc2C2CC2)cc1
n

API: the following record is the query input.
[Q] Consider `NS(=O)(=O)c1ccc(CNc2nc(Nc3cccc(NC(=O)N4CCCC4)c3)ncc2Br)cc1` . Does its % control lie strictly below 7%?
[A] y

---

measured-target: UniProtKB O60674
Sequence (O60674 whole entry): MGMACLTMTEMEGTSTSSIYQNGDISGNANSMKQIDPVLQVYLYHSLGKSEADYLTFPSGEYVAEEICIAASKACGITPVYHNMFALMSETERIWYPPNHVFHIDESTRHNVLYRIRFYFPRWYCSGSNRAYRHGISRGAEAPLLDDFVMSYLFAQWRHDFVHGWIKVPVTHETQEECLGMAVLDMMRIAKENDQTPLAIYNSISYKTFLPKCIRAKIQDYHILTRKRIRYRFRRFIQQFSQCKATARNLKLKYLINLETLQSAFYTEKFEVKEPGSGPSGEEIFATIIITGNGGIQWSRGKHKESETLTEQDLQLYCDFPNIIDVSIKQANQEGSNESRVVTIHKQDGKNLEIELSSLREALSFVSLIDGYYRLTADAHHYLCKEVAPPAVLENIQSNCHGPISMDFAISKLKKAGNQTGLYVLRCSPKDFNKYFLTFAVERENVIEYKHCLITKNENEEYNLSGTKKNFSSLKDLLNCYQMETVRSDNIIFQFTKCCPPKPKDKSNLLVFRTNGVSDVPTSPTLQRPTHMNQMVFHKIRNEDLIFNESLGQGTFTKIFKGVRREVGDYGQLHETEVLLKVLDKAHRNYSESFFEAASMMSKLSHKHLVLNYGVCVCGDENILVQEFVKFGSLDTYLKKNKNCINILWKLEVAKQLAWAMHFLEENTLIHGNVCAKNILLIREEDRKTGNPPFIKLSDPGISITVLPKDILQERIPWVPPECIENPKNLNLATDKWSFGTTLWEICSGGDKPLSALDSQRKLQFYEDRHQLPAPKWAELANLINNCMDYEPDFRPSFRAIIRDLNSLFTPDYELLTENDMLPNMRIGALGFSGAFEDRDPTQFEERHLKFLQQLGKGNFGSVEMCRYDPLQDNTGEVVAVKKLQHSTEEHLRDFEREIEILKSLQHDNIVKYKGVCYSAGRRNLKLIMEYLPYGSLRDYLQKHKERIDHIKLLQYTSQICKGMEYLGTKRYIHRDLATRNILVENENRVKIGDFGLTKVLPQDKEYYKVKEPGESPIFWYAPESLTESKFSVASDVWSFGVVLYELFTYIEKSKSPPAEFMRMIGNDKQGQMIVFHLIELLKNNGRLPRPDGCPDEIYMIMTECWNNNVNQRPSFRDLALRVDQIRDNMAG
assay-details: Inhibition of recombinant human JAK2 (808 to end residues) using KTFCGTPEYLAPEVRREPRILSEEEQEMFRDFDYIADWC as substrate at 1 uM incubated for 40 mins in presence of [gamma-33P-ATP] by radiometric scintillation assay relative to control
Rule: t for % control not less than 60%, f for anything less.

Take a look at these entries with their results.
NS(=O)(=O)c1ccc(CNc2nc(Nc3cccc(NC(=O)N4CCCC4)c3)ncc2Br)cc1
f
c1cc(CN2CCOCC2)cc(Nc2nccc(NCCc3cnc[nH]3)n2)c1
t
NS(=O)(=O)c1ccc(CNc2nc(Nc3cccc(NC(=O)N4CCCC4)c3)ncc2C2CC2)cc1
t
NS(=O)(=O)c1ccc(CNc2ccnc(Nc3cccc(CN4CCOCC4)c3)n2)cc1
f
NS(=O)(=O)c1ccc(CNc2ccnc(Nc3cccc(NC(=O)N4CCCC4)c3)n2)cc1
t
NS(=O)(=O)c1ccc(CNc2nc(Nc3cccc(CN4CCOCC4)c3)ncc2Br)cc1
f

[Q] Form field: % control at least 60%? Entry: `NS(=O)(=O)c1ccc(CNc2nc(Nc3cccc(CN4CCOCC4)c3)ncc2C2CC2)cc1`
[A] t
